Origin of values: PubChem BioAssay AID651610

As shown below, each of these compounds has a reported inhibition value.
- PROTOCOL: inhibitors of HIV-1 Env-driven cell-cell fusion, primary screen, HeLa-JRFL effector, CEM21 target cells, luciferase (AID 651610);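 further: 0% = plate neutral controls and 100% = maraviroc near 300 nM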
- ASSAY_CONDITIONS: hits give high values; at 16.7 µM unless noted
Hit rate of the full screen: of about 360,000 compounds, about 3,900 (1.1%) were called active. Many of the other results were omitted from the sample, so actives are more common in it than they were.

| RECORD_SMILES | inhibition |
| --- | --- |
| CCC(=O)N(C)C[C@@H]1Oc2cc(C#Cc3cccnc3)ccc2S(=O)(=O)N([C@H](C)CO)C[C@@H]1C | 19.7% (inactive) |
| C[C@@H]1CN([C@H](C)CO)C(=O)Cc2cc(NC(=O)NC3CCCCC3)ccc2O[C@H]1CN(C)Cc1ccc(Cl)c(Cl)c1 | -10.2% (inactive) |
| COc1ccc(CN(C)C[C@H]2Oc3c(NS(=O)(=O)c4ccccc4)cccc3C(=O)N([C@@H](C)CO)C[C@H]2C)cc1 | 12% (inactive) |
| CN(C)CCCNC(=O)C[C@@H]1C=C[C@H](NC(=O)Cc2cccnc2)[C@H](CO)O1 | 12.3% (inactive) |

----------
- PROTOCOL: inhibitors of HIV-1 Env-driven cell-cell fusion, primary screen, HeLa-JRFL effector, CEM21 target cells, luciferase (AID 651610);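 further: 0% = plate neutral controls and 100% = maraviroc near 300 nM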
- ASSAY_CONDITIONS: at 16.7 µM unless noted
About 3,900 (1.1%) of roughly 360,000 compounds were called active.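 The calls were made as follows: active = mean replicate inhibition score of at least 50 and every replicate individually at or above 50; inconclusive = only one of the two criteria met; inactive = mean below 50 and not all replicates reaching 50.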 The entries come from a sample that favours actives as a whole.
Outcomes: active, inactive

| COMPOUND | CLASS |
| --- | --- |
| CC1(C(=O)NCc2ccc3c(c2)OCO3)CCN1C(=O)Cc1cccc2ccccc12 (stereo not given) | inactive |
| S=C(c1ccc(-c2ccccc2)o1)N1CCCCC1 | inactive |
| Cc1noc(C)c1NC(=O)Nc1ccc2c(c1)C(=O)N([C@H](C)CO)C[C@@H](C)[C@H](CN(C)S(=O)(=O)c1ccc(Cl)cc1)OCCCC[C@H](C)O2 | inactive |
| C[C@@H](CN1C2=NC[C@@H](Cc3ccccc3)N2C[C@H]1Cc1ccc(O)cc1)NC(=O)CCC1CCCCC1 | inactive |
| Cc1ccccc1S(=O)(=O)N[C@H]1CC[C@@H](CCn2cc(Cc3ccccc3)nn2)O[C@H]1CO | inactive |
| C[C@@H]1CN([C@@H](C)CO)C(=O)c2cc(NC(=O)C3CCCCC3)ccc2O[C@@H](C)CCCCO[C@H]1CN(C)C(=O)CCC(F)(F)F | inactive |
| Cc1oc2c(F)c(F)c(F)c(F)c2c1S(=O)(=O)Nc1cccc(C(F)(F)F)c1 | active |
| CN1[C@@H]2c3ccc(-c4ccc(F)cc4)c(=O)n3C[C@H]1[C@H](CO)[C@H]2C(=O)NC1CCC1 | inactive |
| CN(C)CC(=O)Nc1ccc2c(c1)[C@H]1C[C@H](CC(=O)NCc3ccccc3)O[C@@H](CO)[C@H]1O2 | inactive |
| CN(C)C(=O)c1cccc(-c2cnc3sc(NCc4ccc5c(c4)OCO5)nn23)c1 | active |
